molecular target: Mitogen-activated protein kinase 8 (Homo sapiens, UniProt P45983); test: In Vitro Enzyme Assay: In vitro JNK1 assay.
Sequence (P45983 whole entry): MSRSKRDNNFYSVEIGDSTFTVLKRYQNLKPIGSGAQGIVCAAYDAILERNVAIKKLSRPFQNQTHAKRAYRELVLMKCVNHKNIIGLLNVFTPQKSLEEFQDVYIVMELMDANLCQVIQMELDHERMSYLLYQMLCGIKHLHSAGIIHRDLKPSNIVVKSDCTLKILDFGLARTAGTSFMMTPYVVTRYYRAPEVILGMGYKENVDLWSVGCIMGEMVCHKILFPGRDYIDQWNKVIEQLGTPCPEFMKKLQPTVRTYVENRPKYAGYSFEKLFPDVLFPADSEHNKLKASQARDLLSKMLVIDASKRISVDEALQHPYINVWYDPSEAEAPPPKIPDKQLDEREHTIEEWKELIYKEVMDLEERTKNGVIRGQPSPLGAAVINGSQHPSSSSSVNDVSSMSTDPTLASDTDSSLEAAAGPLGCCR
Quick reference: IC50 of the listed items.
Number first, unit second.

- SMI: "COC(=O)c1c(CNC(=O)c2cnc(N3CCOCC3)s2)c(=O)c2ccc(Cl)cc2n1-c1ccccc1"
  IC50: "8 nM"
- SMI: "O=C(NCc1cn(-c2ccccc2F)c2cc(F)ccc2c1=O)c1cnn(-c2ccccc2)c1"
  IC50: "40 nM"

With those in mind, consider the next compound.
Ask: In one line, give reported IC50 of the entry CC(C)(O)CNC(=O)c1ccc(C(=O)NCc2cn(-c3ccccc3)c3cc(Cl)ccc3c2=O)cc1 .
Result: 220 nM
